B1: Receptor-type tyrosine-protein phosphatase R (Homo sapiens), Q15256 (parent)
chain: MRRAVCFPALCLLLNLHAAGCFSGNNDHFLAINQKKSGKPVFIYKHSQDIEKSLDIAPQKIYRHSYHSSSEAQVSKRHQIVNSAFPRPAYDPSLNLLAMDGQDLEVENLPIPAANVIVVTLQMDVNKLNITLLRIFRQGVAAALGLLPQQVHINRLIGKKNSIELFVSPINRKTGISDALPSEEVLRSLNINVLHQSLSQFGITEVSPEKNVLQGQHEADKIWSKEGFYAVVIFLSIFVIIVTCLMILYRLKERFQLSLRQDKEKNQEIHLSPITLQPALSEAKTVHSMVQPEQAPKVLNVVVDPQGRGAPEIKATTATSVCPSPFKMKPIGLQERRGSNVSLTLDMSSLGNIEPFVSIPTPREKVAMEYLQSASRILTRSQLRDVVASSHLLQSEFMEIPMNFVDPKEIDIPRHGTKNRYKTILPNPLSRVCLRPKNVTDSLSTYINANYIRGYSGKEKAFIATQGPMINTVDDFWQMVWQEDSPVIVMITKLKEKNEKCVLYWPEKRGIYGKVEVLVISVNECDNYTIRNLVLKQGSHTQHVKHYWYTSWPDHKTPDSAQPLLQLMLDVEEDRLASQGRGPVVVHCSAGIGRTGCFIATSIGCQQLKEEGVVDALSIVCQLRMDRGGMVQTSEQYEFVHHALCLYESRLSAETVQ

Variants of: B1
Settings: with ret_human RET
OBSERVED PROPERTY: effect of a mutation on the interaction

Record Y249F;D554A;C588S . Reported effect of a mutation on the interaction: disrupting interaction

Form: variant = C588S ; effect of a mutation on the interaction = disrupting interaction

Value of measured effect of a mutation on the interaction for the entry D554A;C588S : disrupting interaction
